# Read-out: Plasminogen activator inhibitor-1 (PAI1), SERPINE1 (gene 5054)
# assayExplanation: BSK_hDFCGF_PAI1: BioMAP Diversity Plus: hDFCGF Assay for Plasminogen activator inhibitor-1 (PAI1) Biomarker Activity (AID 2283066)
# measurementSetup: primary human foreskin fibroblasts; actives raise or lower the signal
The source made the active and inactive calls. Rule for the calls: active = hit-call score of the fitted dose curve at least 0.9, where 1 is the maximum; inactive = score below 0.9.
Pick one and only one: active, inactive

Sample answers from the record:
{"compound": "CC(C)C(=O)Nc1ccc([N+](=O)[O-])c(C(F)(F)F)c1", "label": "inactive"}
{"compound": "CCCCCCCCCCCCCCCCOS(=O)(=O)O", "label": "active"}
{"compound": "CCCCCCCC/C=C\\CCCCCCCC(=O)OC[C@@H](O)[C@H]1OC[C@H](O)[C@H]1O", "label": "inactive"}
{"compound": "Cc1nc(-c2ccccn2)ncc1C(=O)Nn1cc(C)c2cc(F)ccc21", "label": "inactive"}
{"compound": "CCOC(N)=O", "label": "inactive"}
{"compound": "O=C1CN(N=Cc2ccc([N+](=O)[O-])o2)C(=O)N1", "label": "inactive"}
{"compound": "CCOc1ccc2[nH]cc(C(=O)NCc3ccccc3)c(=O)c2n1", "label": "inactive"}
{"compound": "CCCc1ccccc1", "label": "inactive"}

Exercise: Any idea what this test logged for NC(=O)N1c2ccccc2C=Cc2ccccc21 ?
Solution: inactive

Exercise: Any idea what this test logged for CC(C)CC(C)O (stereo not drawn) ?
Solution: inactive

Exercise: Any idea what this test logged for c1ccc2cc3ccccc3cc2c1 ?
Solution: inactive

Exercise: Any idea what this test logged for OC(O)(C(F)C(O)(O)C(F)(F)F)C(F)(F)F ?
Solution: inactive

Exercise: Any idea what this test logged for CCCCOC(=O)c1ccccc1 ?
Solution: inactive

###

# assayExplanation: ATG_GRE_CIS: Attagene CIS-FACTORIAL HepG2 Assay for human Glucocorticoid Response Elements (GRE) (AID 2282947)
# measurementSetup: HepG2 GRE cis-reporter, Attagene multiplex mRNA; actives raise or lower the signal
Active and inactive are the calls of the source. How the source made its calls: active means hit-call score of the fitted dose curve at least 0.9, where 1 is the maximum; inactive means score below 0.9.
Pick one and only one: True = active, False = inactive

Sample answers from the record:
{"molecule": "CCCOc1ccc(S(=O)(=O)N2CCN(CC)CC2)cc1-c1nc2c(CC)n(Cc3ccccn3)nc2c(=O)[nH]1", "label": "False"}
{"molecule": "CCc1ccc(O)c(C(C)(C)C)c1", "label": "False"}

Exercise: Any idea what this test logged for Cc1nccn1-c1ccc(Sc2cccc(C3(C(N)=O)CCOCC3)c2)cc1 ?
Solution: True

Exercise: Any idea what this test logged for OCCOCCOCCO ?
Solution: False

Exercise: Any idea what this test logged for FC(F)(F)C(F)(F)C(F)(F)C(F)(F)C(F)(F)C(F)(F)I ?
Solution: False

###

# assayExplanation: BSK_SAg_PBMCCytotoxicity: PBMC Cytotoxicity Assessment in the BioMAP Diversity Plus: SAg Assay (AID 2283093);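 note: PBMC viability measured as Alamar Blue reduction fluorescence at 546/580 nm; fitted both ways against DMSO so a hit may be loss or gain of signal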
# measurementSetup: primary human HUVEC with PBMC
The source made the active and inactive calls. Rule for the calls: active = hit-call score of the fitted dose curve at least 0.9, where 1 is the maximum; inactive = score below 0.9.
Pick one and only one: 1 (yes) for active, 0 (no) for inactive

Sample answers from the record:
{"compoundStructureString": "FC(F)=C(F)C(F)(F)C(F)(F)C(F)(F)C(F)(F)C(F)(F)C(F)(F)F", "label": "0 (no)"}
{"compoundStructureString": "NC(=O)NN=Cc1ccc([N+](=O)[O-])o1", "label": "0 (no)"}
{"compoundStructureString": "Cn1cc[nH]c1=S", "label": "0 (no)"}
{"compoundStructureString": "c1ccc2ncccc2c1", "label": "0 (no)"}
{"compoundStructureString": "O=C1CN(N=Cc2ccc([N+](=O)[O-])o2)C(=O)N1", "label": "0 (no)"}

Exercise: Any idea what this test logged for OCCC(F)(F)C(F)(F)C(F)(F)C(F)(F)F ?
Solution: 0 (no)

Exercise: Any idea what this test logged for Cc1ccc(S(=O)(=O)NC(=O)NN2CCCCCC2)cc1 ?
Solution: 0 (no)

Exercise: Any idea what this test logged for NCC(F)(F)C(F)(F)C(F)(F)C(F)(F)F ?
Solution: 0 (no)

Exercise: Any idea what this test logged for CC(C)c1nnc2ccc(-c3ocnc3-c3cc(F)ccc3F)cn12 ?
Solution: 1 (yes)

Exercise: Any idea what this test logged for CCCCCCCCN(C)C ?
Solution: 0 (no)

Exercise: Any idea what this test logged for O=c1[nH]cnc2c1ncn2[C@H]1CC[C@@H](CO)O1 ?
Solution: 0 (no)

Exercise: Any idea what this test logged for Cn1c(=O)c2[nH]cnc2n(C)c1=O ?
Solution: 0 (no)

Exercise: Any idea what this test logged for Cc1nc(-c2ccccn2)ncc1C(=O)Nn1cc(C)c2cc(F)ccc21 ?
Solution: 0 (no)
